- Target or test system: T1, wild-type MBP-CR2 SCR1-2 (human), P20023
- T1 chain: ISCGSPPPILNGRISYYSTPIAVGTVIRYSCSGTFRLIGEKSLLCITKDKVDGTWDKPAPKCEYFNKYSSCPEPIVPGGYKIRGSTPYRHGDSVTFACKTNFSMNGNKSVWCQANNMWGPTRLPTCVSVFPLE
Recorded endpoint: IC50 (µM)
Answers are plain numbers, in µM.

Recorded IC50 for CSEGSLKGC (modifications not checked) [peptide EBV gp350 cp1] , please?
150

Numbers sourced from patent US20120108492A1.
